system: Plasmodium falciparum; assay: Antimalarial activity against chloroquine-sensitive Plasmodium falciparum 3D7 infected in human red blood cells assessed as reduction in parasite growth incubated for 72 hrs by SYBR green I-based DNA quantification assay; type: functional, organism-based, Red blood cell; details: 3D7, Erythrocyte
Attribute Measured: EC50
# do not omit the unit; it follows the number

Query: Specify reported EC50 for the compound shown: COc1cc2c(cc1OC)C1(NCC2)C(=O)Nc2ccc(Cl)cc21 (stereo unspecified)
Reply: 1860 nM

---

tested on: Plasmodium falciparum; assay: Antimalarial activity against chloroquine-resistant Plasmodium falciparum FCB-2 infected in human erythrocyte assessed as inhibition of parasite growth incubated for 48 hrs by [3H]-hypoxanthine incorporation assay based liquid scintillation counter method; format: functional, organism-based; conditions: FCB-2, Erythrocyte
Attribute Measured: pIC50
Units for pIC50: none; it is -log10 of a concentration expressed in mol/L.

Query: Entry C[C@@H]1CC[C@]2(C[C@H]3C[C@H]4[C@@H]5CCC67OC6C(=O)CC[C@]7(C)[C@H]5CC[C@]4(C)[C@H]3[C@@H]2C)OC1 (stereo partly specified) needs its pIC50 filled in; supply it.
Reply: 5.00

---

tested on: Plasmodium falciparum; assay: Antimalarial activity against chloroquine-sensitive Plasmodium falciparum 3D7 infected in human erythrocytes assessed as inhibition of parasite growth incubated for 48 hrs by parasite lactate dehydrogenase based colorimetric assay; type: functional, organism-based; conditions: 3D7, 48 h
Attribute Measured: pIC50
Quick note: pIC50 means taking -log10 of the concentration in moles per liter.

Query: Tell us which pIC50 value is on record for COc1cc([C@@H]2c3cc(Br)ccc3NC3(C(=O)Nc4ccccc43)[C@H]2C)ccc1O (some centres not stated)
Reply: 5.88

Query: Give the measured pIC50 for COc1cc([C@@H]2c3cc(Cl)ccc3NC3(C(=O)Nc4ccccc43)[C@H]2C)ccc1O (some centres not stated)
Reply: 5.74

---

system: Plasmodium falciparum; assay: Antimalarial activity against Plasmodium falciparum Dd2 assessed as inhibition of parasite growth; format: functional, organism-based
Attribute Measured: IC50 (nM)
Just the number please, in nM, no unit attached.

Query: Identify measured IC50 corresponding to FC1CCN(CCOc2ccc(C3CCC4(CC3)OOC3(OO4)C4CCCC3CCC4)cc2)CC1 (stereo unspecified)
Reply: 7.7

---

test system: Plasmodium falciparum; assay: Antimalarial activity against multidrug-resistant early ring stage Plasmodium falciparum K14 infected in human erythrocytes assessed as inhibition of parasite growth incubated for 48 hrs by [3H]-hypoxanthine incorporation assay; assay type: functional, organism-based; conditions: K14, Erythrocyte
Attribute Measured: pIC50
For clarity, pIC50 is expressed as the negative log10 of concentration in mol/L.

Query: Report pIC50 on Plasmodium falciparum for this entry: "O=C1C=Cc2cc(O)c(O)cc2C12C(=O)C=Cc1cc(O)c(O)cc12"
Reply: 5.63

---

system: Plasmodium falciparum; assay: Antimalarial activity against chloroquine sensitive Plasmodium falciparum 3D7 infected in human erythrocyte assessed as inhibition of parasite growth preincubated with compound for 24 hrs followed by hypoxanthine addition and measured after 24 hrs by [3H]-hypoxanthine incorporation based liquid scintillation counter; format: functional, organism-based; settings: 3D7, Erythrocyte
Attribute Measured: IC50 (nM)
Quick note: give the figure in nM, leave out the unit.

Query: Answer with reported IC50 of CN1CCN(C2CCN(C(=O)CC3CCC4(CC3)OOC3(OO4)C4CC5CC(C4)CC3C5)CC2)CC1 (stereo unspecified)
Reply: 0.8
